# Test system: Citrobacter freundii 1982

cpd_smiles	MIC, µg/mL
O=C(O)C1=C(/C=C2\CCN(Cc3cccs3)C2=O)C[C@@H]2CN(C(=O)C(F)(F)F)[C@@H]3C(=O)N1[C@H]23	32
CC(=O)N1C[C@H]2CC(/C=C/c3ccc(O)cc3)=C(C(=O)O)N3C(=O)[C@@H]1[C@@H]23	32
O=C(O)C1=C(/C=C2\CCN(c3ccccc3)C2=O)C[C@@H]2CN(C(=O)C(F)(F)F)[C@@H]3C(=O)N1[C@H]23	64

###

# Tested on: Citrobacter freundii 1982
# if measured MIC < 20 µg/mL: T  # else: F

cpd_smiles	assigned_category
CC(=O)N1C[C@H]2CC(/C=C3\CCN(CC(F)(F)F)C3=O)=C(C(=O)O)N3C(=O)[C@@H]1[C@@H]23	T
CC(=O)N1C[C@H]2CC(/C=C3\CCN(c4cccc([N+](=O)[O-])c4)C3=O)=C(C(=O)O)N3C(=O)[C@@H]1[C@@H]23	T
CC(=O)N1C[C@H]2CC(/C=C/c3ccc[n+](CC(N)=O)c3)=C(C(=O)[O-])N3C(=O)[C@@H]1[C@@H]23	T
NC(=O)c1ccc(NC(=O)N2C[C@H]3CC(/C=C4\CCN(CC(F)(F)F)C4=O)=C(C(=O)O)N4C(=O)[C@@H]2[C@@H]34)cc1	T
O=C(O)C1=C(/C=C/c2ccccn2)C[C@@H]2CN(C(=O)C(F)(F)F)[C@@H]3C(=O)N1[C@H]23	F
O=C(O)C1=C(/C=C2\CCN(c3cccc([N+](=O)[O-])c3)C2=O)C[C@@H]2CN(C(=O)C(F)(F)F)[C@@H]3C(=O)N1[C@H]23	T

###

# System: Citrobacter freundii 1982
# assay_protocol: Antibacterial activity in vitro (MIC) against Citrobacter freundii 1982
# Assay type: cell-based
# test_context: read-out: MIC C. freundii 1982
# if measured MIC < 20 µg/mL: Yes  # else: No

cpd_smiles	assigned_category
CC(=O)N1C[C@H]2CC(/C=C/c3ccc[n+](Cc4ccccc4)c3)=C(C(=O)[O-])N3C(=O)[C@@H]1[C@@H]23	Yes
O=CN1C[C@H]2CC(/C=C/c3ccccn3)=C(C(=O)O)N3C(=O)[C@@H]1[C@@H]23	Yes
CC(=O)N1C[C@H]2CC(/C=C/c3cc4ccccc4[n+](CC(N)=O)c3)=C(C(=O)[O-])N3C(=O)[C@@H]1[C@@H]23	Yes
O=C(O)C1=C(/C=C2\CCN(Cc3ccc([N+](=O)[O-])cc3)C2=O)C[C@@H]2CN[C@@H]3C(=O)N1[C@H]23	No
CC(=O)N1C[C@H]2CC(/C=C/c3ccc[n+](C/C=C/c4ccccc4)c3)=C(C(=O)[O-])N3C(=O)[C@@H]1[C@@H]23	No
CC(=O)N1C[C@H]2CC(/C=C3\CCN(c4cccnc4)C3=O)=C(C(=O)O)N3C(=O)[C@@H]1[C@@H]23	Yes
O=C(O)C1=C(/C=C/c2cnc3ccccc3c2)C[C@@H]2CN[C@@H]3C(=O)N1[C@H]23	No
